assay: AUC (0 to last) in Sprague-Dawley rat plasma at 1 mg/kg, iv administered as single bolus dose by LC-MS/MS analysis; type: ADME, organism-based; parameters: dose 1 mg/kg, route intravenous, time 0 - last
quantity-name: AUC(0-t)

Using the record for O=S(=O)(Nc1cscn1)c1cc(Cl)c(OCC2NCCC=C2c2ccc(F)cc2)cc1F (stereo unspecified) , state its measured AUC(0-t).
3.56 µM·h

---

test: in vivo; details: Sprague-Dawley, rat, plasma, po, 10 mg/kg
quantity-name: AUC(0-t) (µM·h)
Answers are plain numbers, in µM·h.

Please list AUC(0-t) recorded for the compound O=S(=O)(Nc1cscn1)c1cc(Cl)c(OCC2NCCC=C2c2ccc(F)cc2)cc1F (stereo unspecified)
41.8
